Sourced from patent US20220306765A1

System tested: human CLDN18.2-mRFP A42S (human)
Sequence (chain, as listed by the source A42S A42S limits assumed): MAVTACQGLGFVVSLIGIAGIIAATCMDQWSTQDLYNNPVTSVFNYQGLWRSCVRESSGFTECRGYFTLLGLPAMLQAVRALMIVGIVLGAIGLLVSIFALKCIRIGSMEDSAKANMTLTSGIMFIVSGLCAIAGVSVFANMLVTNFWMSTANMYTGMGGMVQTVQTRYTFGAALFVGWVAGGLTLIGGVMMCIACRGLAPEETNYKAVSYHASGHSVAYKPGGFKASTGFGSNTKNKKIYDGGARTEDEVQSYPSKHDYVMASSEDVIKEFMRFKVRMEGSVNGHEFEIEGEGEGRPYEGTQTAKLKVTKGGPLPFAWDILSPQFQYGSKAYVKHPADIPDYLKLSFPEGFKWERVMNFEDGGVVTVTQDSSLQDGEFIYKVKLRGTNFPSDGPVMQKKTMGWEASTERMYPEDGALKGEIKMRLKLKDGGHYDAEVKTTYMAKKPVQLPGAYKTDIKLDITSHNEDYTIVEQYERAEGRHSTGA
Run description: FACS, transfected HEK293, 10 µg/ml antibody;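 note: antibody binding read by flow cytometry with a FITC-labelled anti-human IgG secondary, gated on RFP-positive cells, each mutant signal expressed against wild-type CLDN18.2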
Metric name: binding percentage vs wild-type CLDN18.2 (%)
Report as a plain number; the unit % is understood.

Which binding percentage vs wild-type CLDN18.2 reading was recorded for the binder 11F12-C (antibody, human IgG1, V domains shown, also called chimeric 11F12) VH: EFQLQQSGPELEKPGASVRISCKTSGYSFTGYNMNWVKQSNGESLEWIGYIDPYYGGTRYNQKFKGKATLTVDKSSSTAYMQLKSLTSEDSAVYYCARSYYGNAFDYWGQGTTLTVSS VL: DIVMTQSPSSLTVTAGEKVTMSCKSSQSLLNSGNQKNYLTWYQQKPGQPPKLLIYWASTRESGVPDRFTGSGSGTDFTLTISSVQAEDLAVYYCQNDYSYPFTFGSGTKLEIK ?
56.9

New cases:
Which binding percentage vs wild-type CLDN18.2 reading was recorded for the binder 26G6-C (antibody, human IgG1, V domains shown, also called chimeric 26G6) VH: EFQLQQSGPELEKPGASVKISCKTSGYSFTGYNMNWVKQSNGQSLEWIGHIDPYYVTTTYNQKFRGKATLTVDKSSSTAYMQLKSLTSEDSAVYYCARSFYGNAFDYWGQGTTLTVSS VL: DIVMTQSPSSLTVTAGEKVTMSCKSSQSLFNSGNQKNYLTWYQQKPGQPPKLLIYWASTRESGVPDRFTGSGSGTDFTLTISSVQAEDLAVYYCQNDYSFPFTFGSGTKLEIK ?
82.2

Which binding percentage vs wild-type CLDN18.2 reading was recorded for the binder 7C12-C (antibody, human IgG1, V domains shown, also called chimeric 7C12) VH: EFQLQQSGPELEKPGASVRISCKTSGYSFTGYNMNWVKQSNGESLEWIGNIDPYYGATRYNQKFKGKATLTVDKSSSTAYMQLKSLTSEDSAVYYCARSYYGNAFDYWGQGTTLTVSS VL: DIVMTQSPSSLTVTAGEKVTMSCKSSQSLLNSGNQKNYLTWYQQKPGQPPKLLIYWASTRESGVPDRFTGSGSGTDFTLTISSVQAEDLAVYYCQNDYSFPFTFGSGTKLEIK ?
38.7

Which binding percentage vs wild-type CLDN18.2 reading was recorded for the binder 18B10-C (antibody, human IgG1, V domains shown, also called chimeric 18B10) VH: EFQLQQSGPELEKPGASVRISCKTSGYSFTGYNMNWVKQSNGESLEWIGNIDPYYGGTSYNQKFKGKATLTVDKSSSTAYMQLKSLTSEDSAVYYCARMYHGNAFDYWGQGTTLTVSS VL: DIVMTQSPSSLTVTAGEKVTMSCKSSQSLLNSGNLKNYLTWYQQKPGQPPKLLIYWASTRKSGVPDRFTGSGSGTDFTLTLSSVQAEDLAVYYCQNDYSYPLTFGAGTKLELK ?
69.2

Which binding percentage vs wild-type CLDN18.2 reading was recorded for the binder 59A9-C (antibody, human IgG1, V domains shown, also called chimeric 59A9) VH: QITQKESGPGILQPSQTLSLTCSLSGFSLSTYFIGVGWIRQPSGKGLEWLAHIWWNDNKYYNTALKSRLTISKDTSNNQVFLKIASVDTADTATYYCARMGSGAWFTYWGQGTLVTVSA VL: DIVMTQSPSSLTVTAGEKVTMSCKSSQSLLNSGNQKNYLTWYQQKPGQPPKLLIYWASTRESGVPDRFTGSGSGTDFTLTISSVQAEDLAVYYCQNDYYYPLTFGSGTKLEIK ?
90

Which binding percentage vs wild-type CLDN18.2 reading was recorded for the binder 12E9-C (antibody, human IgG1, V domains shown, also called chimeric 12E9) VH: EFQLQQSGPELEKPGASVRISCKTSGYSFTGYNMNWVKQSNGESLEWIGNIDPYYGGTRYNQKFKGKATLTVDKSSSTAYMQLKSLTSEDSAVYYCARSYYGNAFDYWGQGTTLTVSS VL: DIVMTQSPSSLTVTAGEKVTMSCKSSQNLLNNGNQKNYLTWYQQKPGQPPKLLIYWASTRESGVPDRFTGSGSGTDFILTISSVQAEDLAVYYCQNDYSFPFTFGAGTKLELK ?
55.1
